Taken from patent US7981903B2.

# MEASURED ON: human IR (hIR) (Homo sapiens, UniProt P06213)
# Construct: containing amino acid residues 979-1382 of human IR
# TEST: TR-FRET kinase assay of purified hIR
# REPORTED CONDITIONS: activated hIR 0.5 nM, 10 μM ATP, values given as pIC50 category
READOUT KIND: IC50

[[record]]
compound = "Cc1ccc(NC(=O)CN(C)C)cc1Nc1nc(Nc2cc3ccccc3cc2C(N)=O)c2cc[nH]c2n1 [Example 30]"
readout_kind = "IC50"
experimental_result = "0.251 to 1 nM"


// each listed compound needs a value for IC50
1. COc1cc(N2CCC(N3CCCCC3)CC2)ccc1Nc1nc(Nc2cccc(F)c2C(N)=O)c2cc[nH]c2n1 [Example 45]
2. COc1cc(N2CCOCC2)ccc1Nc1nc(Nc2cc(F)c(F)cc2C(N)=O)c2cc[nH]c2n1 [Example 104]
3. COc1cc(OCCN2CCN(C)CC2)ccc1Nc1nc(Nc2cccc(F)c2C(N)=O)c2cc[nH]c2n1 [Example 203]
4. COCCN(C)CC(=O)N1CCc2cc(OC)c(Nc3nc(Nc4cccc(F)c4C(N)=O)c4cc[nH]c4n3)cc21 [Example 170]
5. COc1cc2c(cc1Nc1nc(Nc3cccc(F)c3C(N)=O)c3cc(C)[nH]c3n1)N(C(=O)CN(C)C)CC2 [Example 262]

Resp:
["1.26 to 3.98 nM", "0.251 to 1 nM", "1.26 to 3.98 nM", "0.251 to 1 nM", "5.01 to 158 nM"]

Req: // fetch IC50 given entry COc1cc(N2CCN(S(C)(=O)=O)CC2)ccc1Nc1nc(Nc2cccc(F)c2C(N)=O)c2cc[nH]c2n1 [Example 204]
Resp: 1.26 to 3.98 nM

====

# MEASURED ON: NIH-3T3 cells overexpressing human IR (Homo sapiens)
# Sequence (P06213 28-1382): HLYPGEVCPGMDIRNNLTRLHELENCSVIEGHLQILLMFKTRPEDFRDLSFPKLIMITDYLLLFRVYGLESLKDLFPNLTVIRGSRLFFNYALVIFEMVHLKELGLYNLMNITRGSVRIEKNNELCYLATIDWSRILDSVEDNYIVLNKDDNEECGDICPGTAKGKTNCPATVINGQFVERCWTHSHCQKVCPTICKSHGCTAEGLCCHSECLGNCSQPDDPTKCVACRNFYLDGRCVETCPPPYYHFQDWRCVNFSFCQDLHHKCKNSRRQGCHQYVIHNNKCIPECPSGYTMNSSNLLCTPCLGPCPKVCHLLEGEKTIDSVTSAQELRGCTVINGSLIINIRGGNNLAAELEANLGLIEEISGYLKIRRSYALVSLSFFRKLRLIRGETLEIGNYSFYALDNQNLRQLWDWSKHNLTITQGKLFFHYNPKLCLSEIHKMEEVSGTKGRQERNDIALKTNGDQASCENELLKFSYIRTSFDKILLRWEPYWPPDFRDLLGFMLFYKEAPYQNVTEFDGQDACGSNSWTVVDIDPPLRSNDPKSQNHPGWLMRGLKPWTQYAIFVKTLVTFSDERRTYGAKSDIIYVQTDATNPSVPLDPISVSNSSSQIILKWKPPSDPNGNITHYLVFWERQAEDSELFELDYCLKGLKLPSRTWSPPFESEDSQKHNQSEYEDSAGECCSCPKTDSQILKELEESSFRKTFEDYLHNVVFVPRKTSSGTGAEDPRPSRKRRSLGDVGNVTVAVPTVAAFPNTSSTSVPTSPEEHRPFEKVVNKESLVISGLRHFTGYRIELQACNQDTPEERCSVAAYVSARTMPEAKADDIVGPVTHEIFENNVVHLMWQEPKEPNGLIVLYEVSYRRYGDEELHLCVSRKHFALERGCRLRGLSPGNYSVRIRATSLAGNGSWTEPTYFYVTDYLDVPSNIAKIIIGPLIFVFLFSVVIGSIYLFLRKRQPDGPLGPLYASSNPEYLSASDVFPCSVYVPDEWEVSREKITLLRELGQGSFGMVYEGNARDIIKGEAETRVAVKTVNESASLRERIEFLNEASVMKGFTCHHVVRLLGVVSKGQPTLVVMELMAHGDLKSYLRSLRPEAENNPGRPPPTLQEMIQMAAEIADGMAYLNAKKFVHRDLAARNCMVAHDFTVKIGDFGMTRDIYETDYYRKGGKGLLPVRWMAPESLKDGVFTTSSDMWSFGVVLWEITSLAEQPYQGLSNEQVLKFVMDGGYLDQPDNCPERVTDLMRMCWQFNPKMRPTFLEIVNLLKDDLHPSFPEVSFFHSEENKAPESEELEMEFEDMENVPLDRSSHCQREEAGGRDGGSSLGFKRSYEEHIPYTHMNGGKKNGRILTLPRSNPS
# TEST: IR cellular autophosphorylation (DELFIA)
# REPORTED CONDITIONS: 2 h compound, insulin 3 ug/ml for 15 minutes, IC50 category
READOUT KIND: IC50

Go through the list and state IC50 for each entry.
1. COc1cc(C2=CCCN(C)C2)ccc1Nc1nc(Nc2ccc(F)cc2C(N)=O)c2cc[nH]c2n1 [Example 55]
2. COc1cc2c(cc1Nc1nc(Nc3cc(F)cc(F)c3C(N)=O)c3cc[nH]c3n1)NCCC2 [Example 220]
3. COc1cc(N2CCC(N3CCCCC3)CC2)ccc1Nc1nc(Nc2cccc(F)c2C(N)=O)c2cc[nH]c2n1 [Example 45]
4. COc1cc(N2CCN(C(C)C)CC2)ccc1Nc1nc(Nc2cc(F)ccc2C(N)=O)c2cc[nH]c2n1 [Example 79]
5. COc1cc2c(cc1Nc1nc(Nc3cccc(F)c3C(N)=O)c3cc[nH]c3n1)N(C(C)=O)CC2 [Example 134]

Resp:
["100 to 500 nM", "> 500 nM", "100 to 500 nM", "< 100 nM", "< 100 nM"]

Hi, could you look up IC50 for each item in my list?
1. CNC(=O)c1c(F)cccc1Nc1nc(Nc2cc3c(cc2OC)CCN3C(=O)C(C)(C)O)nc2[nH]ccc12 [Example 193]
2. COc1cc(N2CCN(C(C)C)CC2)ccc1Nc1nc(Nc2cc(Cl)cc(F)c2C(N)=O)c2cc[nH]c2n1 [Example 93]
3. CNC(=O)c1c(F)cc(F)cc1Nc1nc(Nc2cc3c(cc2OC)CCCN3C(=O)CN(C)C)nc2[nH]ccc12 [Example 179]
4. COc1ccc(NC(=O)CN(C)C)cc1Nc1nc(Nc2cccc(F)c2C(N)=O)c2cc[nH]c2n1 [Example 244]

Resp:
["> 500 nM", "100 to 500 nM", "< 100 nM", "< 100 nM"]

# per-item lookup of IC50; items listed below
1. COc1cc(N2CCOC[C@@H]2C)ccc1Nc1nc(Nc2ccc(F)cc2C(N)=O)c2cc[nH]c2n1 [Example 61]
2. COc1cc2c(cc1Nc1nc(Nc3cccc(F)c3C(=O)NC(C)C)c3cc[nH]c3n1)N(C(=O)CN(C)C)CC2 [Example 158]

Resp:
1. < 100 nM
2. > 500 nM
